# target.or.test.system: T1, human CD4 on the surface of SKW3 cells or human PBMCs (human, UniProt P01730 26-458)
# T1 construct: whole, on cells; SKW3 CD4 knockout cells served as the negative cell line; also called hCD4; SKW3 WT
# experiment.notes: FACS confirmation, supernatant on human PBMCs, anti-mouse Fc A647, CD4+ gate
readout.label: PBMCs, anti-mFc 647 CD4+ gate - RL1 Binding

binder: 75110_04P08A (antibody, V domains shown, Tested here as non-clonal hybridoma supernatant from AlivaMab Mouse Kappa mice (detected with anti-mouse Fc and anti-human kappa)) VH: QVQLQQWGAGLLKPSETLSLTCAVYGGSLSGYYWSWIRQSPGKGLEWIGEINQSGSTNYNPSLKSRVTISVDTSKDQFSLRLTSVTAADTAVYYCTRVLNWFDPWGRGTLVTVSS VL: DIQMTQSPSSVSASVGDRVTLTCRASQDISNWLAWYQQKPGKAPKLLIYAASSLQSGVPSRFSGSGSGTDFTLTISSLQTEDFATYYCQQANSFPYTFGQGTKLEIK
result: 260000
//
binder: 75110_03C01A (antibody, V domains shown, Tested here as non-clonal hybridoma supernatant from AlivaMab Mouse Kappa mice (detected with anti-mouse Fc and anti-human kappa)) VH: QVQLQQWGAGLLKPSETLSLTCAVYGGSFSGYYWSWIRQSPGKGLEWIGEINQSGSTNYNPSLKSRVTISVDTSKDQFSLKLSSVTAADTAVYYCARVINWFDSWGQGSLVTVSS VL: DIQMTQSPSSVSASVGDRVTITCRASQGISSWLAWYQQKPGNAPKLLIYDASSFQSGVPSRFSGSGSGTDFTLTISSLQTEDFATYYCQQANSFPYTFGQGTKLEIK
result: 266000
